target: human CYP2D6 (Homo sapiens, UniProt P10635)
Sequence (P10635 whole entry): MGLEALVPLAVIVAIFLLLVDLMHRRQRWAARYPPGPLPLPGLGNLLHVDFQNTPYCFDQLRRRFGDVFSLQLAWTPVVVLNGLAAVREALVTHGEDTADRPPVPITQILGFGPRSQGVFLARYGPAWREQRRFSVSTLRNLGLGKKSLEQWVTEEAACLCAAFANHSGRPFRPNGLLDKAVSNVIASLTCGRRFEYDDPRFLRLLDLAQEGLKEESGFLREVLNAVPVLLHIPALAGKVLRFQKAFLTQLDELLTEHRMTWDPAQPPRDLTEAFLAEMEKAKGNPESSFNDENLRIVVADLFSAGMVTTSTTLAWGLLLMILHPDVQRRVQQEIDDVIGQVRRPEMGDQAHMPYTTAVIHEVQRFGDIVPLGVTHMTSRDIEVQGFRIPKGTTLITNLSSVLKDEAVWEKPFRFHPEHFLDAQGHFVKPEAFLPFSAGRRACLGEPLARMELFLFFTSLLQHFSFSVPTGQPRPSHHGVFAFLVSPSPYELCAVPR
Mark Met for IC50 under 2000 nM, Not met if at or over.

MOLECULE	TEST SYSTEM	ASSIGNED CATEGORY
CCCCCCCCCCCCCCCCCC(=O)O.OCCN(CCO)CCO [Triethanolamine stearate]	human CYP2D6 (Homo sapiens, UniProt P10635)	Not met
CCCCCCCC[P+](CCCCCCCC)(CCCCCCCC)CCCCCCCC.[Br-] [Tetraoctylphosphonium bromide]	human CYP2D6 (Homo sapiens, UniProt P10635)	Met
CC[N+]1(C)CCCC1.[I-] [1-Ethyl-1-methylpyrrolidinium iodide]	human CYP2D6 (Homo sapiens, UniProt P10635)	Met
[I][Hg][I] [Mercury(II) iodide]	human CYP2D6 (Homo sapiens, UniProt P10635)	Met
CC(=O)[O-].CC(=O)[O-].[Hg+2] [Mercury(II) acetate]	human CYP2D6 (Homo sapiens, UniProt P10635)	Met
CCN(CC)CCOc1ccc(Cc2ccccc2)cc1.Cl [Tesmilifene hydrochloride]	human CYP2D6 (Homo sapiens, UniProt P10635)	Not met
Cc1cc(CCC(=O)OCCOCCOCCOC(=O)CCc2cc(C)c(O)c(C(C)(C)C)c2)cc(C(C)(C)C)c1O	human CYP2D6 (Homo sapiens, UniProt P10635)	Not met
N=C(Nc1ccccc1)Nc1ccccc1 [1,3-Diphenylguanidine]	human CYP2D6 (Homo sapiens, UniProt P10635)	Met
OC(c1ccc(Cl)cc1)(c1ccc(Cl)cc1)c1cccnc1 [Parinol]	human CYP2D6 (Homo sapiens, UniProt P10635)	Not met

---

target: UniProt P11712; experiment: biochemical
Where a name gives a salt, the structure may show the parent alone.
READOUT: IC50 (µM)

MOLECULE	TEST SYSTEM	READOUT	UNIT DESCRIPTOR	NUMERIC READOUT
CCC1(c2cnc[nH]2)Cc2ccccc2C1 [Atipamezole]	UniProt P11712	IC50	µM	1.21
CC(C(O)c1ccccc1)N(C)C/C=C/c1ccccc1 (stereo not drawn) [Cinnamedrine]	UniProt P11712	IC50	µM	16.1
CCNP(=S)(OC)O/C(C)=C/C(=O)OC(C)C (stereo not drawn) [Propetamphos]	UniProt P11712	IC50	µM	0.57
O=C1CC2(CCCC2)CC(=O)N1CCNCC1COc2ccccc2O1 (stereo not drawn) [Binospirone mesylate]	UniProt P11712	IC50	µM	23.5
CCCc1ccc(OCC(=O)N2CCN(C(=O)COc3ccc(CCC)cc3OC)CC2)c(OC)c1 [Simetride]	UniProt P11712	IC50	µM	6.41
Cc1nc2n(c(=O)c1CCN1CCC(C(=O)c3ccc(F)cc3)CC1)CCS2 [Setoperone]	UniProt P11712	IC50	µM	27.2
COc1cc([C@@H]2c3cc4c(cc3[C@H](O)[C@H]3COC(=O)[C@H]23)OCO4)cc(OC)c1OC [Podofilox]	UniProt P11712	IC50	µM	1.97
CCOP(=S)(Oc1cnc(C(C)(C)C)nc1)OC(C)C (stereo not drawn) [Tebupirimfos]	UniProt P11712	IC50	µM	1.79
CCCCCCCCCCCCCCCC[N+](C)(C)CC [Ethylhexadecyldimethylammonium bromide]	UniProt P11712	IC50	µM	83.1

---

biological target: human CYP2C19 (Homo sapiens); test: biochemical; conditions: CYP2C19 AC50 (half-maximal activity concentration)
Sequence (P33261 whole entry): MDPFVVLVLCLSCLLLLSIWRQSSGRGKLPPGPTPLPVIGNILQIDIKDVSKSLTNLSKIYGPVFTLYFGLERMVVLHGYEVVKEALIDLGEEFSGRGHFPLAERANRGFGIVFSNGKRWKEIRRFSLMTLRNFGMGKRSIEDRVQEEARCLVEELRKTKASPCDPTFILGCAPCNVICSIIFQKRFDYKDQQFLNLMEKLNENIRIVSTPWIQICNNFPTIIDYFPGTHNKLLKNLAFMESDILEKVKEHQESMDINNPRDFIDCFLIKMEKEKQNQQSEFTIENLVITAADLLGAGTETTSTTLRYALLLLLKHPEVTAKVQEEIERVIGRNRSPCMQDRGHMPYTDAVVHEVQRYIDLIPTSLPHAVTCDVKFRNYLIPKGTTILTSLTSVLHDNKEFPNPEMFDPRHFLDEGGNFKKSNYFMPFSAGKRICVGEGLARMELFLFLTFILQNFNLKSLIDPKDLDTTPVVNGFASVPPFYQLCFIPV
Counter-ions that a name gives are not always drawn.
Mark Yes for AC50 under 20 µM, No if at or over.

MOLECULE	TEST SYSTEM	ASSIGNED CATEGORY
CCCCCC1C(=O)CCC1CC(=O)OC (stereo not shown) [Methyl dihydrojasmonate]	human CYP2C19 (Homo sapiens)	Yes
CCOC(=O)C(C)Oc1ccc(Oc2nc3ccc(Cl)cc3o2)cc1 (stereo not shown) [Fenoxaprop-ethyl]	human CYP2C19 (Homo sapiens)	No
CCC(C)c1ccccc1O (stereo not shown) [2-(Butan-2-yl)phenol]	human CYP2C19 (Homo sapiens)	Yes
CCOP(=O)(Sc1ccccc1)Sc1ccccc1 [Edifenphos]	human CYP2C19 (Homo sapiens)	Yes
Cl[C@H]1[C@H](Cl)[C@@H](Cl)[C@H](Cl)[C@@H](Cl)[C@H]1Cl [delta-Hexachlorocyclohexane]	human CYP2C19 (Homo sapiens)	Yes
Cc1ccc2c(c1N)C(=O)c1ccccc1C2=O [1-Amino-2-methylanthraquinone]	human CYP2C19 (Homo sapiens)	Yes
COCC(=O)N(c1c(C)cccc1C)C(C)C(=O)OC (stereo not shown) [Metalaxyl]	human CYP2C19 (Homo sapiens)	No
CC(COc1ccccc1)NC(C)C(O)c1ccc(O)cc1 (stereo not shown) [Isoxsuprine hydrochloride]	human CYP2C19 (Homo sapiens)	Yes
IC(I)=C(I)I [Tetraiodoethene]	human CYP2C19 (Homo sapiens)	Yes
COC(=O)C(C)Oc1ccc(Oc2ccc(Cl)cc2Cl)cc1 (stereo not shown) [Diclofop-methyl]	human CYP2C19 (Homo sapiens)	Yes
c1cnc2c(c1)ccc1cccnc12 [1,10-Phenanthroline]	human CYP2C19 (Homo sapiens)	Yes
c1ccc(P(c2ccccc2)c2ccccc2)cc1 [Triphenylphosphine]	human CYP2C19 (Homo sapiens)	Yes
C[C@]12CC[C@@H]3c4ccc(O)cc4CC[C@H]3[C@@H]1C[C@@H](O)[C@@H]2O [Estriol]	human CYP2C19 (Homo sapiens)	No
O=C(OCc1ccccc1)c1ccccc1 [Benzyl benzoate]	human CYP2C19 (Homo sapiens)	No
Clc1nc(Cl)c(Cl)c(Cl)c1Cl [Pentachloropyridine]	human CYP2C19 (Homo sapiens)	No
CCC(=O)O[C@H]1CC[C@H]2[C@@H]3CCC4=CC(=O)CC[C@]4(C)[C@H]3CC[C@]12C [Testosterone propionate]	human CYP2C19 (Homo sapiens)	No
O=[N+]([O-])c1ccc(O)cc1C(F)(F)F [3-Trifluoromethyl-4-nitrophenol]	human CYP2C19 (Homo sapiens)	No
C[C@]12CC[C@@H]3c4ccc(O)cc4CC[C@H]3[C@@H]1CC[C@@H]2O [17beta-Estradiol]	human CYP2C19 (Homo sapiens)	Yes
Nc1c(Br)cc([N+](=O)[O-])cc1Br [2,6-Dibromo-4-nitroaniline]	human CYP2C19 (Homo sapiens)	No

---

target: human CYP1A2 (Homo sapiens, UniProt P05177)
Sequence (P05177 whole entry): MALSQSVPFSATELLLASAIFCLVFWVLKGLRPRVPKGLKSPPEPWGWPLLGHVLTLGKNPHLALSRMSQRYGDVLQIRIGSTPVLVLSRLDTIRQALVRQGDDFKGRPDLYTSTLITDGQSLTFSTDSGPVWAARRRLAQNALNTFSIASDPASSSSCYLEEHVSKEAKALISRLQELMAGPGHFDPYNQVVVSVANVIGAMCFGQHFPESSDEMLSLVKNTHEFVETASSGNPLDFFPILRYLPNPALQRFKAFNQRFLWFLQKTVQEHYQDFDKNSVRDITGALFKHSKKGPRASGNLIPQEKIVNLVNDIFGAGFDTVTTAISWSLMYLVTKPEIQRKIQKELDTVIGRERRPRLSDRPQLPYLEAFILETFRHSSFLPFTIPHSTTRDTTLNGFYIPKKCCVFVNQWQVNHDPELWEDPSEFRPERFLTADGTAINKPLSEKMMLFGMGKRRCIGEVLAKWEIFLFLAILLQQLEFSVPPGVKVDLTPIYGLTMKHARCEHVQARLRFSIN

COMPOUND	CYP1A2 Efficacy
Cl.ClCCCN1CCN(c2cccc(Cl)c2)CC1	16.12 ± 1.09 (-77 ± 4) %
C[C@@H](Cc1ccccc1)NCc1ccccc1Cl.Cl [Clobenzorex hydrochloride]	15.49 ± 0 (-71 ± 4) %
Cl.Cl.c1ccc(CNCCNCc2ccccc2)cc1	20.22 ± 5.13 (-47 ± 10) %
O=S(=O)(Oc1ccc(Cl)cc1)c1ccccc1	5.64 ± 0.00 (-100 ± 5) %

---

Overview of reported AC50 across a group of compounds:
target: human CYP2C9 (Homo sapiens, UniProt P11712); assay: biochemical; conditions: CYP2C9 AC50 (half-maximal activity concentration)
Sequence (P11712 whole entry): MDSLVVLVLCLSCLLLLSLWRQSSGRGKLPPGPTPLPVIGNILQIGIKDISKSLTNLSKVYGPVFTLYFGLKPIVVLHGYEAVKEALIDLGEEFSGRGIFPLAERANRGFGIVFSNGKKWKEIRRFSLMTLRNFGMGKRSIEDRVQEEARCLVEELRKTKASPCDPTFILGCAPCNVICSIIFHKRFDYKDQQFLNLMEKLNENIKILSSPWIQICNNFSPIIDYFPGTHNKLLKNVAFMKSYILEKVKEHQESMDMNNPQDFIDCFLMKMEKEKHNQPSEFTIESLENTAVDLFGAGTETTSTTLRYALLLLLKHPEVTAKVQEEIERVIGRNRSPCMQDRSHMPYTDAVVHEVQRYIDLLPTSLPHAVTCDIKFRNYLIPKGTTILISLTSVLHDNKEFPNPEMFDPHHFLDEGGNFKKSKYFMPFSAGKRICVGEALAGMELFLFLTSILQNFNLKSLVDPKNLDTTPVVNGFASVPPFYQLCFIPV

COMPOUND	AC50 (µM)
Cc1ccc(S(=O)(=O)NCl)cc1 [Chloramine-T trihydrate]	81.6
Cc1cccc(C)c1NC(=O)CN1CCN(CCCC(c2ccc(F)cc2)c2ccc(F)cc2)CC1	21.3
c1ccc(-c2ccccc2-c2ccccc2)cc1	26.5
C[C@]12CCC(=O)C=C1C=C[C@@H]1[C@@H]2CC[C@@]2(C)[C@H]1CC[C@@]21CCC(=O)O1	32.2
O=S(=O)(Oc1ccc(Cl)cc1Cl)c1ccccc1 [2,4-Dichlorophenyl benzenesulfonate]	35.7

---

Overview of reported IC50 across a group of compounds:
target: human CYP2C9 (Homo sapiens); experiment: biochemical; conditions: CYP2C9 IC50 (half-maximal inhibitory concentration)
Structures can show the parent of a compound that is named as a salt.

COMPOUND	IC50 / µM
COC(=O)N(OC)c1ccccc1COc1ccn(-c2ccc(Cl)cc2)n1 [Pyraclostrobin]	5.35
CC(C)C1CCC(Cc2ccc(Cl)cc2)C1(O)Cn1cncn1 (stereo not drawn) [Ipconazole]	0.79
COc1ccc(-c2coc3cc(O)ccc3c2=O)cc1 [Formononetin]	0.29
COc1ccc(C(c2ccc(OC)cc2)C(Cl)(Cl)Cl)cc1 [Methoxychlor]	2.45
Clc1ccc(C(c2ccc(Cl)cc2)C(Cl)(Cl)Cl)cc1 [p,p'-DDT]	4.33
Clc1ccccc1-c1nc(-c2ccncc2)no1 [Pifexole]	6.98
CC1(C)CCC(=Cc2ccc(Cl)cc2)C1(O)Cn1cncn1 (stereo not drawn) [Triticonazole]	1.47
COc1cccc(C(=O)NN(C(=O)c2cc(C)cc(C)c2)C(C)(C)C)c1C [Methoxyfenozide]	18.1
N#Cc1c(Cl)c(Cl)c(Cl)c(C#N)c1Cl [Chlorothalonil]	6.61
CCCCOCN(C(=O)CCl)c1c(CC)cccc1CC [Butachlor]	5.09
CCC(=O)O[C@]1(C(=O)SCF)[C@H](C)C[C@H]2[C@@H]3C[C@H](F)C4=CC(=O)C=C[C@]4(C)[C@@]3(F)[C@@H](O)C[C@@]21C [Fluticasone propionate]	4.84
Clc1ccc(C2(Cn3cncn3)CC(Br)CO2)c(Cl)c1 (stereo not drawn) [Bromuconazole]	3.35
CCCOC(=O)c1cncn1C(C)c1ccccc1 (stereo not drawn) [Propoxate]	13.3
OC(Cc1ccccc1Cl)(Cn1nc[nH]c1=S)C1(Cl)CC1 (stereo not drawn) [Prothioconazole]	0.93
Fc1ccc([C@]2(Cn3cncn3)O[C@H]2c2ccccc2Cl)cc1 (racemic) [Epoxiconazole]	5.66
NS(=O)(=O)C(F)(F)C(F)(F)C(F)(F)C(F)(F)C(F)(F)C(F)(F)C(F)(F)C(F)(F)F [PFOSA]	0.71
CCC1=C[C@@H]2CN(C1)Cc1c([nH]c3ccccc13)[C@@](C(=O)OC)(c1cc3c(cc1OC)N(C)[C@H]1[C@@](O)(C(=O)OC)[C@H](OC(C)=O)[C@]4(CC)C=CCN5CC[C@]31[C@@H]54)C2 [Vinorelbine tartrate]	21
CCCC1COC(Cn2cncn2)(c2ccc(Cl)cc2Cl)O1 (stereo not drawn) [Propiconazole]	2.18
ClC(Cl)=C(c1ccc(Cl)cc1)c1ccc(Cl)cc1 [p,p'-DDE]	12.9
CCC(C)n1ncn(-c2ccc(N3CCN(c4ccc(OCC5COC(Cn6cncn6)(c6ccc(Cl)cc6Cl)O5)cc4)CC3)cc2)c1=O (stereo not drawn) [Itraconazole]	14
COP(=S)(OC)Oc1ccc([N+](=O)[O-])c(C)c1 [Fenitrothion]	6.12
COc1c2occc2cc2ccc(=O)oc12 [8-Methoxypsoralen]	7.56
C[C@@H]1C[C@H]2[C@@H]3CCC4=CC(=O)C=C[C@]4(C)[C@@]3(Cl)[C@@H](O)C[C@]2(C)[C@@]1(OC(=O)c1ccco1)C(=O)CCl [Mometasone furoate, reference compound]	8.08
O=[N+]([O-])c1cc(C(F)(F)F)c(Cl)c([N+](=O)[O-])c1Nc1ncc(C(F)(F)F)cc1Cl [Fluazinam]	0.73
CCN(CC)C(=O)C(C)Oc1cccc2ccccc12 (stereo not drawn) [Napropamide]	29.9
CC(C1CC1)C(O)(Cn1cncn1)c1ccc(Cl)cc1 (stereo not drawn) [Cyproconazole]	0.13
CC1(C)CCC(Cc2ccc(Cl)cc2)C1(O)Cn1cncn1 (stereo not drawn) [Metconazole]	0.23
c1ccc2c(c1)Nc1ccccc1S2 [Phenothiazine]	40.4
CO/N=C(/C(=O)OC)c1ccccc1COc1ccccc1C [Kresoxim-methyl]	19.6
OC(c1ccc(F)cc1)(c1cncnc1)c1ccccc1Cl (stereo not drawn) [Nuarimol]	23.6
CC(C)C[C@H]1C(=O)N2CCC[C@H]2[C@]2(O)O[C@](NC(=O)[C@@H]3C=C4c5cccc6[nH]c(Br)c(c56)C[C@H]4N(C)C3)(C(C)C)C(=O)N12 [Bromocriptine mesylate]	7.32
CCOCn1c(-c2ccc(Cl)cc2)c(C#N)c(Br)c1C(F)(F)F [Chlorfenapyr]	9.71
O=C(OCC1(COC(=O)c2cccnc2)CCCC(COC(=O)c2cccnc2)(COC(=O)c2cccnc2)C1O)c1cccnc1 [Nicomolol]	8.67

These data points were gathered from paper PMC12155096.
